# ASSAYED_TARGET: Voltage-gated inwardly rectifying potassium channel KCNH2 (Homo sapiens) (UniProt Q12809)
# Sequence (Q12809 whole entry, looked up): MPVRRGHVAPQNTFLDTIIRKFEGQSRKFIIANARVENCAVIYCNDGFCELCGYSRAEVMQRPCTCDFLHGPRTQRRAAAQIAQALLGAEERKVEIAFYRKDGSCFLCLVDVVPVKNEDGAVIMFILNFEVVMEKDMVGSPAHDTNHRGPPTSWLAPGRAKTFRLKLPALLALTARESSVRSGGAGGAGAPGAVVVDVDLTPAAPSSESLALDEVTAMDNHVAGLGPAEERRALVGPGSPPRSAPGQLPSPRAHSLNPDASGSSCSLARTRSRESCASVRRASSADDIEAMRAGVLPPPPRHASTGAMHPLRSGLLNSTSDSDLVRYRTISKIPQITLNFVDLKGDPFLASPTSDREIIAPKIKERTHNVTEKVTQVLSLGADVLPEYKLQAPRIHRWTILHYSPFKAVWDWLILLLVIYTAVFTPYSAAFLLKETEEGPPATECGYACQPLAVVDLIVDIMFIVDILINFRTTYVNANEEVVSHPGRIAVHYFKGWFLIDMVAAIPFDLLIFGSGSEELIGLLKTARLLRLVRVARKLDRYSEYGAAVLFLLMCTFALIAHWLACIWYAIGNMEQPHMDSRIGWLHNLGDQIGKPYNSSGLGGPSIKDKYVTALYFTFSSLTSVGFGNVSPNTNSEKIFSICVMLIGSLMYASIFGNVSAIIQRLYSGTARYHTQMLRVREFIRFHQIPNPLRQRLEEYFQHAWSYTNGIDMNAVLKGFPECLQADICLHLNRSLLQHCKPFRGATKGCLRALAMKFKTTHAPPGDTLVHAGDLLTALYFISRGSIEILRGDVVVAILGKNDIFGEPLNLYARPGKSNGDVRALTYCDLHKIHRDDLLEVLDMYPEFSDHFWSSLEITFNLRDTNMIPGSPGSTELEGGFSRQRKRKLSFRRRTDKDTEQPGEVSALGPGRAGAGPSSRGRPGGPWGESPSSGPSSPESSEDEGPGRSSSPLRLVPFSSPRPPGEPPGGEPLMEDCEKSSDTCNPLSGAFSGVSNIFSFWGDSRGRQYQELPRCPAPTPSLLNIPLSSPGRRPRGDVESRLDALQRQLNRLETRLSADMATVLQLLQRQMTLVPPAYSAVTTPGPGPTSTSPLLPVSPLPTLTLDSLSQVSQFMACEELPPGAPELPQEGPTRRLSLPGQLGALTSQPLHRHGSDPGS
# MEASUREMENT_DESCRIPTION: hERG protection against dofetilide inhibition, confirmation, cell-based, thallium flux, duplicate retest, dofetilide IC70 (AID 1835)
# CONDITION_INFO: hERG cell line, FluxOR thallium flux, dofetilide-blocked; at 10 µM
Screen size: about 2,400 compounds; about 750 (31%) were called active.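 How the source made its calls: active means median signal gain over dofetilide-blocked control wells reaching their mean plus 3 SD, so readout 1 at least 0; inactive means the rest.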 This is one part of the list.
Answer with one of the outcomes given here: active, inactive

# input Recorded test call requested for "Cc1sc2nc[nH]c(=S)c2c1-c1ccccc1"
# output active

# input Recorded test call requested for CC(C(=O)N1CCN(c2ccc([N+](=O)[O-])cc2)CC1)N1C(=O)C2CC=CCC2C1=O (stereo not drawn)
# output inactive

# input Recorded test call requested for "COC(=O)c1ccc(NN=Nc2ccc(C)cc2)cc1"
# output inactive

# input Recorded test call requested for "Fc1ccc(-n2cc(-c3ccccc3)c3c(=S)nc[nH]c32)cc1"
# output inactive

# input Recorded test call requested for CN(C)c1ccc(C(CNS(=O)(=O)c2ccc([N+](=O)[O-])cc2)N2CCCC2)cc1 (stereo not drawn)
# output inactive

# input Recorded test call requested for "CCOc1ccccc1NC(=O)C(=O)CC(=O)c1ccc(OC)cc1"
# output active

# input Recorded test call requested for "Cc1c(-c2ccccc2)sc2nc[nH]c(=S)c12"
# output active

# input Recorded test call requested for CC(C)N1CC(C(=O)Nc2ccc(Cl)c(Cl)c2)CC1=O (stereo not drawn)
# output inactive
